# study target: T1, recombinant biotinylated CD71 extracellular domain (Sino Biologics) with an N-terminal 6His tag (human, UniProt P02786 89-760, biotinylated (sites not given))
# T1 construct: extracellular domain; also called hCD71; huCD71
# T1 sequence (P02786 other isoform, or with tags, fused parts or gaps): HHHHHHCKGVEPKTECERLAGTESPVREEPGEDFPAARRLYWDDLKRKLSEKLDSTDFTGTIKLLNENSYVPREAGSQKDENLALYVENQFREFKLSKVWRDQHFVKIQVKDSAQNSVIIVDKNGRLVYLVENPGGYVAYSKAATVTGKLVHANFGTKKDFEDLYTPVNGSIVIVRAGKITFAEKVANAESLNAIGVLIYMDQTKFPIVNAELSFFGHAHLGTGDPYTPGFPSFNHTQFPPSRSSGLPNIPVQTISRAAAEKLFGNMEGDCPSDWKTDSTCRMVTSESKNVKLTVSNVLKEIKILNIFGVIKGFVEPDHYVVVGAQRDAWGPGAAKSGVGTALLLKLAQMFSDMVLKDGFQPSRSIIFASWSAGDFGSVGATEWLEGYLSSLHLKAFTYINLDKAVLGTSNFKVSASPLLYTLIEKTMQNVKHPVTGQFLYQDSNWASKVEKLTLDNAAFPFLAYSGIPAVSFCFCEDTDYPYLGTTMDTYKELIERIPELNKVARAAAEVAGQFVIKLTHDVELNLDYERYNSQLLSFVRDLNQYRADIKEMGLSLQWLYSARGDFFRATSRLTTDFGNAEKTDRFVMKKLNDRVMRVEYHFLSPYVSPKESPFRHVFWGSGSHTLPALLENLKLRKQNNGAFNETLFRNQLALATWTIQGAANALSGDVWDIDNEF
# experiment notes: screening ELISA, ratio
experimental readout: hCD71:HSA

(P) SEQ ID NO 223 (designed binder, FN3 domain) MLPAPKNLVVSRVTEDSARLSWTAPDAAFDSFTIWYAEALGDGEAIVLTVPGSERSYDLTGLKPGTEYFVDIPGVKGGTRSSPLSAISTT
(Q) SEQ ID NO 150 (designed binder, FN3 domain) MLPAPKNLVVSRVTEDSARLSWTAPDAAFDSFPIAYAEPSPTGEAIVLTVPGSERSYDLTGLKPGTEYSVLIHGVKGGHLSDPLSAIFTT
**Query** Select one. Lower hCD71:HSA: P or Q Your answer should be the label attached to the chosen record.
**Result** P

Recorded values, source patent US20210145976A1.
